- Tested on: corn (Zea mays)
- PROTOCOL_NOTES: Test B pre-/postemergence plant response
- Type: in vivo
- TEST_CONTEXT: Postemergence, 62 g ai/ha; scale 0 to 100 (0 no effect, 100 complete control)

{"MOLECULE": "CCc1ccc(-n2c(-c3ccccc3)ncc(C(=O)C3=C(O)CCCC3=O)c2=O)cc1", "Plant response rating, Corn": 60}
{"MOLECULE": "CCCCn1c(-c2cccc(F)c2)ncc(C(=O)C2=C(O)C3CCC(C3)C2=O)c1=O (stereo not shown)", "Plant response rating, Corn": 98}
{"MOLECULE": "CCc1ccccc1-n1c(-c2ccccc2)ncc(C(=O)C2=C(O)CCCC2=O)c1=O", "Plant response rating, Corn": 75}
{"MOLECULE": "COCCn1c(-c2ccsc2)ncc(C(=O)C2=C(O)C3CCC(C3)C2=O)c1=O (stereo not shown)", "Plant response rating, Corn": 85}

###

- Tested on: giant foxtail (Setaria faberii)
- PROTOCOL_NOTES: Test A pre-/postemergence plant response
- Format: in vivo
- TEST_CONTEXT: Postemergence, 500 g ai/ha; visual injury, 0 to 100 scale (0 no effect, 100 complete control), approx. ten days
EXPERIMENTAL_READOUT: Foxtail, Giant plant response rating

{"COMPOUND": "O=C(C1=C(O)C2CCC(C2)C1=O)c1cnc(-c2ccccc2)n(C2CCCCC2)c1=O (stereo not shown)", "REPORTED_RESULT": 100}
{"COMPOUND": "O=C1CCCC(O)=C1C(=O)c1cnc(-c2cc(F)cc(F)c2)n(-c2ccccc2)c1=O", "REPORTED_RESULT": 90}
{"COMPOUND": "O=C1CCCC(O)=C1C(=O)c1cnc(-c2ccccc2)n(C2CCSCC2)c1=O", "REPORTED_RESULT": 100}
{"COMPOUND": "CCCn1c(-c2ccsc2)ncc(C(=O)C2=C(O)C3CCC(C3)C2=O)c1=O (stereo not shown)", "REPORTED_RESULT": 90}

###

Each item that follows carries a reported Plant response rating, Sedge, Umbrella.
- Tested on: umbrella sedge (Cyperus difformis)
- PROTOCOL_NOTES: Test B flooded paddy test
- Format: in vivo
- TEST_CONTEXT: Flood (flooded paddy test), 62 g ai/ha; scale of 0 to 100 where 0 is no effect and 100 is complete control; 13 to 15 days

{"MOLECULE": "CCCc1ncc(C(=O)C2=C(O)CCCC2=O)c(=O)n1CC1CCCO1 (stereo not shown) [Compound 74]", "Plant response rating, Sedge, Umbrella": 30}
{"MOLECULE": "O=C1CCCC(O)=C1C(=O)c1cnc(-c2ccc(F)cc2)n(C2CCCCC2)c1=O [Compound 197]", "Plant response rating, Sedge, Umbrella": 70}
{"MOLECULE": "O=C1CCCC(O)=C1C(=O)c1cnc(-c2ccccc2)n(-c2ccc(F)cc2F)c1=O [Compound 57]", "Plant response rating, Sedge, Umbrella": 0}
{"MOLECULE": "COCCCn1c(-c2cccc(C)c2)ncc(C(=O)C2=C(O)CCCC2=O)c1=O [Compound 118]", "Plant response rating, Sedge, Umbrella": 70}
{"MOLECULE": "O=C1CCCC(OC(=O)C2CC2)=C1C(=O)c1cnc(-c2ccccc2)n(-c2ccccc2)c1=O [Compound 88]", "Plant response rating, Sedge, Umbrella": 30}
{"MOLECULE": "CCCn1c(-c2cc(F)cc(F)c2)ncc(C(=O)C2=C(O)CCCC2=O)c1=O [Compound 152]", "Plant response rating, Sedge, Umbrella": 0}
{"MOLECULE": "O=C1CCCC(O)=C1C(=O)c1cnc(-c2cccs2)n(C2CCCCC2)c1=O [Compound 189]", "Plant response rating, Sedge, Umbrella": 95}
{"MOLECULE": "O=C1CCCC(O)=C1C(=O)c1cnc(-c2ccccc2Br)n(-c2ccccc2)c1=O [Compound 71]", "Plant response rating, Sedge, Umbrella": 0}
{"MOLECULE": "O=C1CCCC(O)=C1C(=O)c1cnc(-c2ccc(Cl)s2)n(-c2ccccc2)c1=O [Compound 65]", "Plant response rating, Sedge, Umbrella": 0}
{"MOLECULE": "O=C(C1=C(O)C2CCC(C2)C1=O)c1cnc(-c2ccsc2)n(CC2CCCO2)c1=O (stereo not shown) [Compound 229]", "Plant response rating, Sedge, Umbrella": 0}
{"MOLECULE": "O=C1CCCC(O)=C1C(=O)c1cnc(-c2cc(F)cc(F)c2)n(-c2ccccc2)c1=O [Compound 161]", "Plant response rating, Sedge, Umbrella": 0}
{"MOLECULE": "COCCn1c(-c2cccc(F)c2)ncc(C(=O)C2=C(O)C3CCC(C3)C2=O)c1=O (stereo not shown) [Compound 235]", "Plant response rating, Sedge, Umbrella": 70}
{"MOLECULE": "CCCc1ncc(C(=O)C2=C(O)CCCC2=O)c(=O)n1Cc1cccc(OC(F)(F)F)c1 [Compound 105]", "Plant response rating, Sedge, Umbrella": 0}
{"MOLECULE": "CCCc1ncc(C(=O)C2=C(O)CCCC2=O)c(=O)n1Cc1ccccc1 [Compound 103]", "Plant response rating, Sedge, Umbrella": 0}
{"MOLECULE": "CCCCCCc1ncc(C(=O)C2=C(O)CCCC2=O)c(=O)n1-c1ccccc1 [Compound 54]", "Plant response rating, Sedge, Umbrella": 0}
{"MOLECULE": "CCCCc1ncc(C(=O)C2=C(O)CCCC2=O)c(=O)n1-c1ccc(C)cc1 [Compound 67]", "Plant response rating, Sedge, Umbrella": 0}
{"MOLECULE": "CCCc1ncc(C(=O)C2=C(O)CCCC2=O)c(=O)n1Cc1cccc(OC)c1 [Compound 104]", "Plant response rating, Sedge, Umbrella": 0}
{"MOLECULE": "CCc1cccc(-c2ncc(C(=O)C3=C(O)CCCC3=O)c(=O)n2C2CCCCC2)c1 [Compound 194]", "Plant response rating, Sedge, Umbrella": 0}
{"MOLECULE": "CCCc1ncc(C(=O)C2=C(O)CCCC2=O)c(=O)n1-c1ccccc1C [Compound 73]", "Plant response rating, Sedge, Umbrella": 0}
